Data provenance: paper PMC8458281

Target: CXCR4 D97Q (human, UniProt P61073-1 1-352, D97Q)
Sequence (P61073 whole entry D97Q): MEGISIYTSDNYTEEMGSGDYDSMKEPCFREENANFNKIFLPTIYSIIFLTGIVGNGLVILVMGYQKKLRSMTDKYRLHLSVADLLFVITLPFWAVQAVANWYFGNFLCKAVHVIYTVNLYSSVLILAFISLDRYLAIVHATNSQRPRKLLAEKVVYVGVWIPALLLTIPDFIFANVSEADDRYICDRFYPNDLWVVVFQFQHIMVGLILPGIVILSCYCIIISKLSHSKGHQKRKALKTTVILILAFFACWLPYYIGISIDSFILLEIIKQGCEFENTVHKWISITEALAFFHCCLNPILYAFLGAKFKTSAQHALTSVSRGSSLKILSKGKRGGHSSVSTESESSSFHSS
Assay: FACS
PARAMETER: pIC50
Please report pIC50 as the negative decimal logarithm of the molar concentration, giving only the number.

## Task Item ILRWSRKLPCVS (source: synthetic peptide (Fmoc solid-phase synthesis, HPLC-purified)) [EPI-X4 JM#21] has what recorded pIC50?
## Result 5.09
